The reported numbers originate from PubChem BioAssay AID1159580.

runDescription: chemical genetic growth profiling, strain panel (AID 1159580);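 further: tested at 20 µM; growth read once vehicle control cultures reached saturation at 30 °C; lower values mean less growth of the strain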
particulars: S. cerevisiae deletion strains, growth OD, locus YNR052C, strain pop2
Among all 5,500 compounds or so, about 2,000 (36%) were called active. Another 18% or so got no clear call; they are omitted. No stated cut-off is given here; in the data, active means normalized growth mostly below about 0.91 (no sharp cut-off); inconclusive means no clear call, values can overlap the other calls; inactive means mostly above about 0.92. Some of the results follow.
Classes used: active, inactive

* COc1ccc2ccc(=O)oc2c1 | inactive
* CC(C1OC(C)(C)C(O)C1O)[C@@H]1CC[C@]2(C)C3=CCC4C(C)(C)C(=O)CC[C@]4(C)C3CC[C@@]12C (stereo partly drawn) | inactive
* C[C@@H]1CC[C@@]2(NC1)O[C@H]1C[C@H]3C4CC=C5C[C@@H](O)CC[C@]5(C)C4CC[C@]3(C)C1[C@@H]2C (stereo partly drawn) | active
* CC(CC(O)C1OC1(C)C)[C@@H]1CCC2(C)C3=CCC4C(C)(C)C(=O)CCC4(C)C3CC[C@@]12C (stereo partly drawn) | inactive
* CC1CC[C@]2(NC1)O[C@H]1CC3C4CC[C@H]5C[C@@H](O)CC[C@]5(C)C4CC[C@]3(C)[C@H]1[C@@H]2C (stereo partly drawn) | active
* C[C@@H]1CC[C@@]2(OC1)O[C@H]1CC3C4CC[C@H]5C[C@@H](O)CC[C@]5(C)C4CC[C@]3(C)[C@H]1[C@@H]2C (stereo partly drawn) | inactive
* NC(=O)c1ncn([C@@H]2O[C@H](CO)[C@@H](O)[C@H]2O)n1 | inactive
* CC1CC[C@@]2(OC1)O[C@H]1CC3C4CC[C@@H]5C[C@@H](O)CC[C@]5(C)C4CC[C@]3(C)[C@H]1[C@@H]2C (stereo partly drawn) | inactive
